Target: human B7-H3 protein (human) (UniProt Q5ZPR3)
Assay: Octet (BLI) epitope binning on captured human B7-H3; competitor 72D1D11
inhibition ratio for assorted binders
MEASURED_ATTRIBUTE: inhibition ratio (%)

{"columns": ["BINDER", "ASSAY_VALUE"],
 "data": [
  ["216E7A9 (antibody, V domains shown) VH: DVQLVESGGGLVQPGGSRKLSCAASGFTFSSFGMHWVRQAPEKGLEWVAYISSGSSTIYYADTVRGRFTISRDNPKNTLFLQMTSLRSEDTAMYYCARGGDYYYALDYWGQGTSVTVSS VL: DIQMTQSPASLSVSVGETVTITCRASENIHSNLEWYQQKQGKSPQLLVYAATNLADGVPSRFSGSGSGTQYSLKINSLQSEDFGSYYCQHFWGTPFTFGSGTKLEIK", 98],
  ["429H9F10 (antibody, V domains shown) VH: QIQLVQSGPELKKPGETVKISCKASGYTFTYYGLNWVKQAPGKGLRWMGWINTSSGVPTYADDFKGRFAISLESSASTVFLEISNLKNEDTAAYFCAKDDGYFYTMDHWGQGTSVTVSS VL: DIVMTQPPLSLPVSLGDQASISCRSSQSLVHNNGKTYLHWYLQKPGQSPKLLIYKVSNRFSGVPDRFSGSGSGTDFTLKISRVETEDLGVYFCSQSTQVPWTFGGGTKLEIK", 98.9],
  ["294A3C4 (antibody, V domains shown) VH: QVQLQQPGAELVKPGASVKLSCKASGYTFTSYWMHWVKQRPGQGLEWIGMFHPNSGTTNYNEKFKSKATLTVDKSSSTAYMQLSSLTSEDSAVYYCARRLGIFFDYWGQGTTLTVSS VL: DIVMTQSPSSLTVTAGEKVTMSCRSSQSLLNSGNQKNYLTWYQQKPGQPPKLLIYWASTRDSGVPDRFTGSGSGTDFTLTISSVQTEDLAVYYCQTDYSYPFTFGSGTKLEIK", -5]
]}

Numbers sourced from patent US20250313632A1.
